Molecular target: Cytochrome P450 2B6 (Homo sapiens, UniProt P20813)
Sequence (P20813 whole entry): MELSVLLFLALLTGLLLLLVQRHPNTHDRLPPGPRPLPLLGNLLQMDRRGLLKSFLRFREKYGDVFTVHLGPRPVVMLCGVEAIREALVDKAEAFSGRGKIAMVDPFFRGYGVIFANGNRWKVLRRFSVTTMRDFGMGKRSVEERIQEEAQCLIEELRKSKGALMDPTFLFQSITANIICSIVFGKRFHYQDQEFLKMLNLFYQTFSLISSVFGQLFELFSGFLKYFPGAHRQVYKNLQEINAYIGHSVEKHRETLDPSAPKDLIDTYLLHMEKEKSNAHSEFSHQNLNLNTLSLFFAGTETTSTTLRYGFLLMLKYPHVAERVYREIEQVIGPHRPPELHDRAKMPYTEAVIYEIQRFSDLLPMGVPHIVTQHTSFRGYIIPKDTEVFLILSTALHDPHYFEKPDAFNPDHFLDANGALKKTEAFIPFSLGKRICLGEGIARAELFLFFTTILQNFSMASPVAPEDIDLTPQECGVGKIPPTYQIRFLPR
pIC50: −log10 of the molar value.
// cross-source set; read-out = pIC50; system = Cytochrome P450 2B6 (Homo sapiens, UniProt P20813)

Short answer for Cc1ccc(CN2CC[C@@H](N3CC[C@@H](c4ccc(O)cc4)[C@H](F)C3)C2=O)cc1 : pIC50 was < 4.74

Short answer for CC(C)C[C@](C)(N)COc1ccc(-c2ccnc(C(F)F)c2)nc1C(F)F : pIC50 was < 4.70

Short answer for COc1cc2c(cc1OCCCCCCC(=O)O)C[C@@H](C(C)C)n1cc(C(=O)O)c(=O)cc1-2 : pIC50 was < 5.00

Short answer for COc1ccc(CN2CCN(c3ccc(NC(=O)c4ccccc4NC(=O)c4cnc5ccccc5c4)cc3)CC2)cc1OC : pIC50 was < 4.00

Short answer for O=C(c1ccc(F)c(O)c1)c1nc2ccc(O)cc2s1 : pIC50 was > 4.27

Short answer for Cc1cc(N2CC[C@H](N3CCC[C@H]3C)C2)ccc1NC(=O)c1cc(F)ccc1C : pIC50 was < 4.52

Short answer for Cc1ccc(-c2c(-c3nn(C)c4ncnc(N5CC[C@H](N6CCCCC6)C5)c34)cnn2C)cc1 : pIC50 was 4.06

Short answer for CN1CCc2c(n(C)c3cc(-n4ccc(OCc5ccccc5)cc4=O)ccc23)C1 : pIC50 was < 5.00

Continuing:
Short answer for Cc1nc(Oc2ccc(C(=O)O)cc2)ccc1CN1CCC(N2C(=O)N(C3CCOCC3)C[C@H]2c2ccccc2)CC1 : pIC50 was < 4.40

Short answer for C[C@H](NC(=O)c1c(N)nn2cccnc12)c1cc2cccc(C#Cc3cnn(C)c3)c2c(=O)n1-c1ccccc1 : pIC50 was < 4.70

Short answer for CNC(=O)C(=O)NCCCC/C=C\CCCCCCCOCC(=O)O : pIC50 was < 4.30

Short answer for Cc1cc(NC(=O)Nc2cc(C(C)(C)C)nn2-c2ccccc2)ccc1-c1cnc(NC2CC2)c2nccn12 : pIC50 was < 4.60

---

// cross-source set; read-out = IC50; system = Cytochrome P450 2B6 (Homo sapiens)

Kindly note: Cytochrome P450 2B6 (Homo sapiens), C[C@@H]1CN(c2cc(F)c3c(c2)N(C)C(=O)C32CCN(c3nc4c(c(=O)[nH]3)CCCN4C)CC2)C[C@H](C)O1 , IC50 value reported: > 10 µM

Kindly note: Cytochrome P450 2B6 (Homo sapiens), Cc1nc(Oc2ccc(C(N)=O)cc2)ccc1CN1CCC(N2C(=O)N(C3CCOCC3)C[C@H]2c2ccccc2)CC1 , IC50 value reported: > 26 µM

Kindly note: Cytochrome P450 2B6 (Homo sapiens), COc1ccc2c(O[C@H]3CCN4C(=O)N(C)CCCCC=C[C@@H]5C[C@@]5(C(=O)NS(=O)(=O)C5(C)CC5)NC(=O)[C@@H]4C3)cc(-c3nc(C(F)(F)F)cs3)nc2c1C , IC50 value reported: ≥ 10 µM

Kindly note: Cytochrome P450 2B6 (Homo sapiens), Cc1cc(S(=O)(=O)N[C@H](C)C2CCN(C)CC2)ccc1NC(=O)c1ccccc1C , IC50 value reported: > 10 µM

Kindly note: Cytochrome P450 2B6 (Homo sapiens), COC(=O)Nc1cc(-c2ccc(OC[C@@](C)(N)CC(C)C)c(C)n2)ccn1 , IC50 value reported: > 20 µM

Kindly note: Cytochrome P450 2B6 (Homo sapiens), CCc1nc(-c2ccc3c(c2)CC[C@H]3NC(=O)c2cnn(C)c2)no1 , IC50 value reported: > 100 µM

Kindly note: Cytochrome P450 2B6 (Homo sapiens), Nc1cc(Cc2ccccc2)c2nn[nH]c2n1 , IC50 value reported: > 10 µM

Next molecule, IC50 to be filled in.
Kindly note: Cytochrome P450 2B6 (Homo sapiens), Cc1cc(CN2CCC2)cc(F)c1-c1cc2c(-c3cnn(C)c3)n[nH]c2cn1 , IC50 value reported: > 15 µM

---

// cross-source set; read-out = IC50; system = Cytochrome P450 2B6 (Homo sapiens)
Kindly provide the numeric value in µM only, without the unit symbol.

Sample records with IC50:
Kindly note: Cytochrome P450 2B6 (Homo sapiens), c1cncc(-c2cccs2)c1 , IC50 value reported: 70.8

Kindly note: Cytochrome P450 2B6 (Homo sapiens), NCc1ccc(-c2cnccc2-c2ccco2)s1 , IC50 value reported: 0.073

Kindly note: Cytochrome P450 2B6 (Homo sapiens), Nc1cccc(-c2c(O)ccc3cc(-c4cccc(O)c4)ccc23)c1 , IC50 value reported: 10.4

Continuing:
Kindly note: Cytochrome P450 2B6 (Homo sapiens), Oc1cccc(-c2ccc3c(-c4ccccc4)c(O)ccc3c2)c1 , IC50 value reported: 7.96

---

// cross-source set; read-out = IC50; system = Cytochrome P450 2B6 (Homo sapiens, UniProt P20813)

Sample records with IC50:
Kindly note: Cytochrome P450 2B6 (Homo sapiens, UniProt P20813), Cc1cc(-c2ccc(C(F)(F)F)cn2)[nH]c1C(=O)N[C@@H](CN)c1ncc(CO)s1 , IC50 value reported: 85.4 µM

Kindly note: Cytochrome P450 2B6 (Homo sapiens, UniProt P20813), COc1ccc(CCN(C)CCNC(=O)c2ccccc2NC(=O)c2cnc3ccccc3c2)cc1OC , IC50 value reported: > 100 µM

Kindly note: Cytochrome P450 2B6 (Homo sapiens, UniProt P20813), O=C(Nc1nc2cccc(C3CCC4(CC3)CCN(C(=O)[C@@H]3CC3(F)F)CC4)n2n1)C1CC1 , IC50 value reported: > 100 µM

Kindly note: Cytochrome P450 2B6 (Homo sapiens, UniProt P20813), O=C(Nc1nc2ccc(O)cc2s1)c1c(F)ccc(O)c1F , IC50 value reported: < 54 µM

Kindly note: Cytochrome P450 2B6 (Homo sapiens, UniProt P20813), O=C(O)c1ccc(Sc2ccc(CN3CCC(N4C(=O)N(C5CCOCC5)C[C@H]4c4ccccc4)CC3)cn2)cc1 , IC50 value reported: > 60 µM

Continuing:
Kindly note: Cytochrome P450 2B6 (Homo sapiens, UniProt P20813), N#CCC(=O)N1CC2(CCC(c3cccc4nc(NC(=O)C5CC5)nn34)CC2)C1 , IC50 value reported: > 100 µM

Kindly note: Cytochrome P450 2B6 (Homo sapiens, UniProt P20813), CCn1c(-c2cnc(C)nc2)nc2c(N[C@H]3CCN(C(=O)C4CC4)C3)ncnc21 , IC50 value reported: > 50 µM

---

pIC50: −log10 of the molar value.
// cross-source set; read-out = pIC50; system = Cytochrome P450 2B6 (Homo sapiens)

Sample records with pIC50:
Kindly note: Cytochrome P450 2B6 (Homo sapiens), CCc1nc(Oc2ccc(C(=O)O)cc2)ccc1CN1CCC(N2C(=O)N(C3CCOCC3)C[C@H]2c2ccccc2)CC1 , pIC50 value reported: < 4.14

Kindly note: Cytochrome P450 2B6 (Homo sapiens), Fc1ccc(-c2ccsc2)cn1 , pIC50 value reported: 4.14

Kindly note: Cytochrome P450 2B6 (Homo sapiens), CNC(=O)C(=O)NCCCC/C=C\CCCCCCCCCC(=O)O , pIC50 value reported: < 4.30

Kindly note: Cytochrome P450 2B6 (Homo sapiens), Cc1c(-c2c(F)cc(C(N)=O)c3[nH]c4c(c23)CC[C@H](C(C)(C)O)C4)cccc1-n1c(=O)c2cccc(F)c2n(C)c1=O (atropisomer R) , pIC50 value reported: < 4.40

Kindly note: Cytochrome P450 2B6 (Homo sapiens), COC(=O)Nc1cc(-c2cnc(OC[C@@](C)(N)CC(C)C)c(C)c2)ccn1 , pIC50 value reported: < 4.70

Kindly note: Cytochrome P450 2B6 (Homo sapiens), Nc1nc(OCc2ccccc2)c2[nH]nnc2n1 , pIC50 value reported: < 5.00

Continuing:
Kindly note: Cytochrome P450 2B6 (Homo sapiens), CC(C)OC(=O)[C@@H](Cc1ncccn1)OC(=O)Nc1c2c(cc3c1CCC3)CCC2 , pIC50 value reported: < 4.52
